Each entry below carries its recorded EC50 (agonist).
Target: mouse melanocortin-5 receptor (mouse, UniProt P41149 1-325)
Sequence (P41149 whole entry): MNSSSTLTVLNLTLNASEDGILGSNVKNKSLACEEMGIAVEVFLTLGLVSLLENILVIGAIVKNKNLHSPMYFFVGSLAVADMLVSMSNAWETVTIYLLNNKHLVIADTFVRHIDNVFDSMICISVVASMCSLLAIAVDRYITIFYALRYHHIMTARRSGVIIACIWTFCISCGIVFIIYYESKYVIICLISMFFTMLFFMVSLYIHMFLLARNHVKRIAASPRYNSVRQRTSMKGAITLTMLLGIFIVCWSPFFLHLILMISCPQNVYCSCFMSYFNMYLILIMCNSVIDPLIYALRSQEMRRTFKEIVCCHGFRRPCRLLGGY
Test: cell-based or functional assay
Bridges are numbered along the chain shown (N, C = ends). Where no end group is shown, it is not given here. [ ]: non-standard residue; d: D form. Nle = CCCC[C@H](N)C(=O)O; Dap = NC[C@H](N)C(=O)O
Measurement Type: EC50 (agonist)

{"columns": ["Binder", "Value Observed"],
 "data": [
  ["YDHPRWNAF[Dap]Y-NH2 (lactam 2-10; N-terminus assumed; SMILES C[C@@H]1NC(=O)[C@H](CC(N)=O)NC(=O)[C@H](Cc2c[nH]c3ccccc23)NC(=O)[C@H](CCCNC(=N)N)NC(=O)[C@@H]2CCCN2C(=O)[C@H](Cc2c[nH]cn2)NC(=O)[C@@H](NC(=O)[C@@H](N)Cc2ccc(O)cc2)CC(=O)NC[C@@H](C(=O)N[C@@H](Cc2ccc(O)cc2)C(N)=O)NC(=O)[C@H](Cc2ccccc2)NC1=O) [SEQ ID NO:31 (Tyr-c[Asp-His-Pro-Arg-Trp-Asn-Ala-Phe-Dpr]-Tyr)]", "7.9 µM"],
  ["YDAAANAF[Dap]Y-NH2 (lactam 2-9; N-terminus assumed; SMILES C[C@@H]1NC(=O)[C@H](C)NC(=O)[C@@H](NC(=O)[C@@H](N)Cc2ccc(O)cc2)CC(=O)NC[C@@H](C(=O)N[C@@H](Cc2ccc(O)cc2)C(N)=O)NC(=O)[C@H](Cc2ccccc2)NC(=O)[C@H](C)NC(=O)[C@H](CC(N)=O)NC(=O)[C@H](C)NC1=O) [SEQ ID NO:2 (Tyr-c[Asp-Ala-Ala-Ala-Asn-Ala-Phe-Dpr]-Tyr)]", "> 100 µM"],
  ["Ac-[Nle]DH[dR]FFK-NH2 (lactam 2-7) [SEQ ID NO:21 (Ac-Nle-c[Asp-His-DArg-Phe-Phe-Lys])]", "> 100 µM"]
]}
